The reported numbers originate from patent US20260199497A1.

Molecular target: UniProtKB P04150
Sequence (P04150 524-777 limits assumed): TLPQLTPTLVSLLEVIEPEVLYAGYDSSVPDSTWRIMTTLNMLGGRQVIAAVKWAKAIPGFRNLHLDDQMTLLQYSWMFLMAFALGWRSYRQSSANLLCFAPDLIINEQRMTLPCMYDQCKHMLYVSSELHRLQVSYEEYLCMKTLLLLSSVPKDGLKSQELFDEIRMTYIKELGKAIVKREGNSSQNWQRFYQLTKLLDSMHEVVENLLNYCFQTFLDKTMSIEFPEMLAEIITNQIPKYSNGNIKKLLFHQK
Assay: GRE reporter gene test (Experiment Example 1), HEK293T cells transfected with pGL4.35 and p-Bind GR Vector
Assay type: cell-based
Details: GRE reporter gene, HEK293T cells, 18-20 h incubation
PROPERTY: pEC50
Keep in mind that pEC50 stands for -log10 of concentration in molar terms.

INSERT INTO assay_data (molecule, value) VALUES
  ('C[C@@H]1C[C@H]2[C@@H]3C[C@H](F)C4=CC(=O)C=C[C@]4(C)[C@@]3(F)[C@@H](O)C[C@]2(C)[C@@]1(OC(=O)c1ccccc1O)C(=O)SCF', 9.89),
  ('C[C@@H]1C[C@H]2[C@@H]3C[C@H](F)C4=CC(=O)C=C[C@]4(C)[C@@]3(F)[C@@H](O)C[C@]2(C)[C@@]1(OC(=O)c1ccc(F)c(N)c1)C(=O)OCCl', 9.40),
  ('C[C@@H]1C[C@H]2[C@@H]3C[C@H](F)C4=CC(=O)C=C[C@]4(C)[C@@]3(F)[C@@H](O)C[C@]2(C)[C@@]1(OC(=O)c1cc(N)co1)C(=O)SCF', 8.92),
  ('C[C@@H]1C[C@H]2[C@@H]3C[C@H](F)C4=CC(=O)C=C[C@]4(C)[C@@]3(F)[C@@H](O)C[C@]2(C)[C@@]1(OC(=O)[C@H]1C[C@@H]1c1ccc(N)cc1)C(=O)SCF', 9.05);

Continue with the molecule presented below.
Data request, read-out pEC50, for `C[C@@H]1C[C@H]2[C@@H]3C[C@H](F)C4=CC(=O)C=C[C@]4(C)[C@@]3(F)[C@@H](O)C[C@]2(C)[C@@]1(OC(=O)c1ccccc1)C(=O)SCF`
9.74

====

Reported values of Emax for individual entries
Biological target: glucocorticoid receptor (Homo sapiens, UniProt P04150)
Assay: GRE reporter gene test (Experiment Example 2), HEK293T cells transfected with pGL4.35 and p-Bind GR Vector
Type: cell-based
Settings: HEK-293T
Be sure to follow the number with its unit.

INSERT INTO assay_data (molecule, property, value) VALUES
  ('C[C@H](O)CC(=O)O[C@]1(C(=O)SCF)[C@H](C)C[C@H]2[C@@H]3C[C@H](F)C4=CC(=O)C=C[C@]4(C)[C@@]3(F)[C@@H](O)C[C@@]21C [D-15]', 'Emax', '102%'),
  ('C[C@@H]1C[C@H]2[C@@H]3C[C@H](F)C4=CC(=O)C=C[C@]4(C)[C@@]3(F)[C@@H](O)C[C@]2(C)[C@@]1(OC(=O)C[C@@H](C)O)C(=O)SCF [D-19]', 'Emax', '120%');

Data request, read-out Emax, for C[C@@H]1C[C@H]2[C@@H]3C[C@H](F)C4=CC(=O)C=C[C@]4(C)[C@@]3(F)[C@@H](O)C[C@]2(C)[C@@]1(OC(=O)c1ccc(CO)cc1)C(=O)SCF [B-31]
92.5%

====

Reported values of Emax for individual entries
Molecular target: UniProt P04150
Sequence (P04150 524-777 limits assumed): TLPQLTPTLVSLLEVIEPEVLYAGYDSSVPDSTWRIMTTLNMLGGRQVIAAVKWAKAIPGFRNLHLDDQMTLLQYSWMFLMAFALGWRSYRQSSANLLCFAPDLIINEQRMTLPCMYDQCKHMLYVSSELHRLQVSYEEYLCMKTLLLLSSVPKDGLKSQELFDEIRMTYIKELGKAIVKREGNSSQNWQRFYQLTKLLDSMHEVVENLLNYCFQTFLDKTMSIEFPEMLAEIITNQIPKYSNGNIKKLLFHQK
Test: GRE reporter gene test (Experiment Example 2), HEK293T cells transfected with pGL4.35 and p-Bind GR Vector
Type: cell-based
Conditions: HEK-293T
Your answer should be a plain number; it is taken to be in %.

Data request, read-out Emax, for `C[C@@H]1C[C@H]2[C@@H]3C[C@H](F)C4=CC(=O)C=C[C@]4(C)[C@@]3(F)[C@@H](O)C[C@]2(C)[C@@]1(OC(=O)c1ccco1)C(=O)SCCO`
139

Another compound: CC(O)CC(=O)O[C@]1(C(=O)SCF)[C@H](C)C[C@H]2[C@@H]3C[C@H](F)C4=CC(=O)C=C[C@]4(C)[C@@]3(F)[C@@H](O)C[C@@]21C (stereo partly drawn)
115

Another compound: `C[C@]12C=CC(=O)C=C1[C@@H](F)C[C@H]1[C@@H]3CC[C@](OC(=O)/C=C/c4ccc(F)c(N)c4)(C(=O)SCF)[C@@]3(C)C[C@H](O)[C@@]12F`
84.8

Another compound: `C[C@]12C=CC(=O)C=C1[C@@H](F)C[C@H]1[C@@H]3CC[C@](OC(=O)c4cc(CO)co4)(C(=O)SCF)[C@@]3(C)C[C@H](O)[C@@]12F`
150

Another compound: `C[C@]12C=CC(=O)C=C1CC[C@H]1[C@@H]3CC[C@](OC(=O)c4ccc(F)c(N)c4)(C(=O)SCF)[C@@]3(C)C[C@H](O)[C@@]12F`
93.7

Another compound: `C[C@@H]1C[C@H]2[C@@H]3C[C@H](F)C4=CC(=O)C=C[C@]4(C)[C@@]3(F)[C@@H](O)C[C@]2(C)[C@@]1(OC(=O)CCO)C(=O)SCF`
132

====

Biological target: glucocorticoid receptor (Homo sapiens, UniProt P04150)
Test: GRE reporter gene test (Experiment Example 1), HEK293T cells transfected with pGL4.35 and p-Bind GR Vector
Type: cell-based
Details: HEK-293T; read-out: Emax
Reported values of Emax for individual entries
Your answer should be a plain number; it is taken to be in %.

INSERT INTO measurements (molecule, property, value) VALUES
  ('C[C@@H]1C[C@H]2[C@@H]3C[C@H](F)C4=CC(=O)C=C[C@]4(C)[C@@]3(F)[C@@H](O)C[C@]2(C)[C@@]1(OC(=O)c1cccc(O)c1)C(=O)SCF', 'Emax', 105),
  ('C[C@]12C=CC(=O)C=C1[C@@H](F)C[C@H]1[C@@H]3CC[C@](OC(=O)c4ccc(F)c(N)c4)(C(=O)SCF)[C@@]3(C)C[C@H](O)[C@@]12F', 'Emax', 102),
  ('C[C@@H]1C[C@H]2[C@@H]3C[C@H](F)C4=CC(=O)C=C[C@]4(C)[C@@]3(F)[C@@H](O)C[C@]2(C)[C@@]1(OC(=O)c1ccnc(N)c1)C(=O)SCF', 'Emax', 91.2),
  ('C[C@@H]1C[C@H]2[C@@H]3C[C@H](F)C4=CC(=O)C=C[C@]4(C)[C@@]3(F)[C@@H](O)C[C@]2(C)[C@@]1(OC(=O)c1ccccc1)C(=O)SCF', 'Emax', 110),
  ('C[C@@H]1C[C@H]2[C@@H]3C[C@H](F)C4=CC(=O)C=C[C@]4(C)[C@@]3(F)[C@@H](O)C[C@]2(C)[C@@]1(OC(=O)c1ccc(F)cc1)C(=O)SCF', 'Emax', 107);

Data request, read-out Emax, for `C[C@@H]1C[C@H]2[C@@H]3C[C@H](F)C4=CC(=O)C=C[C@]4(C)[C@@]3(F)[C@@H](O)C[C@]2(C)[C@@]1(OC(=O)c1ccc(F)c(N)c1)C(=O)OCCl`
87.7

Another compound: `C[C@@H]1C[C@H]2[C@@H]3C[C@H](F)C4=CC(=O)C=C[C@]4(C)[C@@]3(F)[C@@H](O)C[C@]2(C)[C@@]1(OC(=O)c1ccc(O)cc1)C(=O)SCF`
100

Another compound: `C[C@@H]1C[C@H]2[C@@H]3C[C@H](F)C4=CC(=O)C=C[C@]4(C)[C@@]3(F)[C@@H](O)C[C@]2(C)[C@@]1(OC(=O)c1cc(N)co1)C(=O)SCF`
125

Another compound: `C[C@@H]1C[C@H]2[C@@H]3C[C@H](F)C4=CC(=O)C=C[C@]4(C)[C@@]3(F)[C@@H](O)C[C@]2(C)[C@@]1(OC(=O)c1ccc(F)c(N)c1)C(=O)OCF`
87.3

Another compound: `C[C@@H]1C[C@H]2[C@@H]3C[C@H](F)C4=CC(=O)C=C[C@]4(C)[C@@]3(F)[C@@H](O)C[C@]2(C)[C@@]1(OC(=O)[C@H]1C[C@@H]1c1ccc(N)cc1)C(=O)SCF`
102

Another compound: `C[C@@H]1C[C@H]2[C@@H]3C[C@H](F)C4=CC(=O)C=C[C@]4(C)[C@@]3(F)[C@@H](O)C[C@]2(C)[C@@]1(OC(=O)/C=C/c1ccc(F)c(N)c1)C(=O)SCF`
97.2

Another compound: `C[C@@H]1C[C@H]2[C@@H]3C[C@H](F)C4=CC(=O)C=C[C@]4(C)[C@@]3(F)[C@@H](O)C[C@]2(C)[C@@]1(OC(=O)c1ccccc1O)C(=O)SCF`
85.6
